B1: KLHDC10 (parent)
chain: PSLLELAWEKLLAAFPNLANLSRT

Variants of: B1
Experiment: protein stability index of a GFP-peptide fusion (GPS, HEK-293T) (PSI 1-6); higher = more stable;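 further: lentivirally expressed fusions sorted by FACS into six bins by GFP to DsRed ratio, PSI derived from sequencing read proportions per bin multiplied by bin number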
Settings: c terminus: a fixed tail appended
readout.kind: protein stability index
One number for each entry.

Worked set:
ASLLELAWEKLLAAFPNLANLSRT	2.42
PSLLELAAEKLLAAFPNLANLSRT	1.77
PSLLELAWEKLLIAFPNLANLSRT	2.46

Required: protein stability index, one value per variant below.
1. PSLLELAWEKLLADFPNLANLSRT
2. PSLLELAWEKLLAAFPNAANLSRT
3. PSWLELAWEKLLAAFPNLANLSRT
4. PSLLELAWEHLLAAFPNLANLSRT
5. PSLLELAWEKLLVAFPNLANLSRT
6. PSLLELAWEKLLAAVPNLANLSRT

1. 2.19
2. 2.15
3. 1.9
4. 2.09
5. 1.79
6. 2.38

Required: protein stability index, one value per variant below.
1. PSLLEYAWEKLLAAFPNLANLSRT
2. PSLMELAWEKLLAAFPNLANLSRT

1.95
2.47

Required: protein stability index, one value per variant below.
1. PSLLELAWEKLLAAFPNLKNLSRT
2. PSLLELAWEKLLAAFPNLAFLSRT
3. PSLLELAWEKLLAAFPNLATLSRT
4. PSLLELAWEKLLATFPNLANLSRT
5. PSLLELAWEKLLAAFPNLANLSRV
6. PSLLELAWEKLLAAFPNLANLSRP
7. PSLLELAWEKLLAWFPNLANLSRT

1.95
2.17
1.62
2.2
2.29
2.44
3.3
